# measurement-target: human orexin-1 receptor (Homo sapiens (Human), UniProt O43613)
# Sequence (O43613 whole entry): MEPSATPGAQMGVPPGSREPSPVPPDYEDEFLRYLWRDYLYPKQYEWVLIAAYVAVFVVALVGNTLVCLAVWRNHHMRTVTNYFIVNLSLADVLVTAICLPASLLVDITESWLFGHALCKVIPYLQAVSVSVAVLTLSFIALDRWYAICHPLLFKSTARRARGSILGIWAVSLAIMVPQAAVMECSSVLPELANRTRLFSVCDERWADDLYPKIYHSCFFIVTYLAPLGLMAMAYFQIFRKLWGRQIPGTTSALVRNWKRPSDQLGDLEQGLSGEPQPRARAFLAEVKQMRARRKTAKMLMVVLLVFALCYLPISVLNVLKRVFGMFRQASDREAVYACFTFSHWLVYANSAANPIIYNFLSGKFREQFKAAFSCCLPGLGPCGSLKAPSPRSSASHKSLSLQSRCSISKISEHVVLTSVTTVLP
# test-protocol: In vitro assay: intracellular calcium measurements (FLIPR), antagonistic activity
# test-parameters: CHO cells expressing human orexin-1 receptor, orexin-A agonist, geometric mean, read-out: IC50 Ox1
Listed here: items and their measured log10 IC50.
Give log10 of IC50, with IC50 taken in nM.

compound	log10 IC50
Cc1nc(C(=O)N2CC[C@H](C)[C@H]2c2nc3cc(C(F)(F)F)ccc3[nH]2)c(-c2ccc(Cl)cc2)s1 [Ex. 4.139]	0.70
C[C@@]1(c2nc3cc(C(F)(F)F)ccc3[nH]2)CCCN1C(=O)c1cc(C(F)(F)F)ccc1-n1nccn1 [Ex. 5.172]	1.96
Cc1nc(C(=O)N2CCCC2c2nc3cc(Cl)c(C)cc3[nH]2)c(-c2cccc(Cl)c2)s1 (stereo not drawn) [Ex. 1.101]	1.32

Now consider a different compound.
Lookup: Annotate the compound Cc1c(Cl)ccc2[nH]c([C@]3(C)CCCN3C(=O)c3nc(-c4cc(F)ccc4F)sc3-c3ccc(F)cc3)nc12 [Ex. 5.261] with its measured log10 IC50.
Found: 0.60

Recorded values, source patent US9732075B2.
